- PROTOCOL_DETAILS: Cytotoxicity analysis (MTT assay)
- Assay type: cell-based
- MEASUREMENT_CONTEXT: human, differentiated THP-1 cells; toxicity level to THP-1 cells; read-out: (M)IC90, cytotoxicity in THP1
PROPERTY: IC90 at 72 h (M)

compound="O=C(NCc1ccccn1)Nc1cc(N2CC(CCc3ccccc3)CC2=O)ccn1 (stereo not shown) [P-4423632]" property="IC90 at 72 h" reported_measurement=0.000115

* * *

- Tested on: Mycobacterium tuberculosis H37Rv in THP-1
- PROTOCOL_DETAILS: Minimal inhibitory concentrations of P-4423632 against Mtb H37Rv in THP-1 (Table S3)
- Type: cell-based
- MEASUREMENT_CONTEXT: H37RV, THP-1, read-out: (M)IC50
PROPERTY: IC50 (M)

compound="O=C(NCc1ccccn1)Nc1cc(N2CC(CCc3ccccc3)CC2=O)ccn1 (stereo not shown) [P-4423632]" study_target="Mycobacterium tuberculosis H37Rv in THP-1" endpoint_unit=M reported_measurement=2.31e-06

* * *

- STUDY_TARGET: GSK3β (Homo sapiens, UniProt P49841)
- Construct: purchased SignalChem (Richmond, BC, Canada), contract assay service
- Sequence (P49841 whole entry): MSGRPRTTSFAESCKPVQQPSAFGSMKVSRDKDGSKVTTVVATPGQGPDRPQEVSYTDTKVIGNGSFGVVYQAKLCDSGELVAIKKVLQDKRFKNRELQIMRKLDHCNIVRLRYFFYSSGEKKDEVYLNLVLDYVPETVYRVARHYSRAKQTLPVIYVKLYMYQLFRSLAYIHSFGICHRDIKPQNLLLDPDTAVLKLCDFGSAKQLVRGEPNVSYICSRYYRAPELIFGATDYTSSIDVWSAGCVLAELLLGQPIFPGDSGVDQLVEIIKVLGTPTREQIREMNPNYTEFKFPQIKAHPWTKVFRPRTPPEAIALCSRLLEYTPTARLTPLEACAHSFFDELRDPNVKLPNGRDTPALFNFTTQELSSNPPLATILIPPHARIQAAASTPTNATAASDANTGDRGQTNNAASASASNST
- PROTOCOL_DETAILS: in vitro inhibition of GSK3β, ADP-Glo Kinase assay (SignalChem)
- Format: biochemical
- MEASUREMENT_CONTEXT: normalized to negative control
Overview of reported IC50 across a group of compounds:
PROPERTY: IC50 (nM)

compound="O=C(NCc1ccccn1)Nc1cc(N2CC(CCc3ccccc3)CC2=O)ccn1 (centres unmarked)" reported_measurement=748
compound=CSc1ccc(-n2cnc3ccc(-c4nnc(CCc5cccc(C(F)(F)F)c5)o4)cc32)cc1 reported_measurement=280
